- METHOD DESCRIPTION: Solubility Evaluation 2: solubility of dopant compounds in toluene
- Format: physicochemical
- TEST SETTINGS: Table 3
QUANTITY: Solubility (%)
Express your answer in %, writing the number without its unit.

What measured Solubility (%) goes with Cc1ccc(N(c2ccc(C(C)C)cc2)c2cc3c4ccccc4c(N(c4ccc(C)cc4)c4ccc(C(C)C)cc4)cc3c3ccccc23)cc1 [EM213] ? 0.5

Solubility (%) lookup needed for CC(C)c1ccc(N(c2cccc(C(C)(C)C)c2)c2cc3c4ccccc4c(N(c4ccc(C(C)C)cc4)c4cccc(C(C)(C)C)c4)cc3c3ccccc23)cc1 [EM214] , thanks. 1

Entry under review: Cc1ccc(N(c2ccc(C(C)C)cc2)c2c3ccccc3c(-c3c4ccccc4c(N(c4ccc(C)cc4)c4ccc(C(C)C)cc4)c4cc(C(C)(C)C)ccc34)c3ccc(C(C)(C)C)cc23)cc1 [EM209] . Reported Solubility (%)? 0.5

Which value of Solubility (%) has been reported for CC(C)c1ccc(N(c2ccc(C(C)C)cc2)c2c3ccccc3c(N(c3ccc(C(C)C)cc3)c3ccc(C(C)C)cc3)c3ccccc23)cc1 [EM204] in the records? 0.5

Requested field: Solubility (%). Item: Cc1cc(C)cc(N(c2ccc(C(C)C)cc2)c2c3ccccc3c(-c3c4ccccc4c(N(c4ccc(C(C)C)cc4)c4cc(C)cc(C)c4)c4ccccc34)c3ccccc23)c1 [EM208] 1

Name the recorded Solubility (%) for Cc1cc(C)cc(N(c2ccc(C(C)C)cc2)c2cc3c4ccccc4c(N(c4ccc(C(C)C)cc4)c4cc(C)cc(C)c4)cc3c3ccccc23)c1 [EM215] . 1

Data origin: patent US20080113101A1
